Data provenance: patent US6608086B2

Collected melting point values appear next to each entry.
Structures can show the parent of a compound that is named as a salt.

| compound | melting point |
| --- | --- |
| CCC1=C(C(N)=O)C(c2ccc([N+](=O)[O-])cc2)C(C(=O)NCCCN2CCC(C)(c3ccccc3)CC2)=C(CC)N1 (stereo not drawn) (as salt: hydrochloride) (hydrate or solvate) [Example 106, hydrochloride hydrate] | 166 °C (dec.) |
| CCNC(=O)C1=C(CC)NC(CC)=C(C(=O)NCCCN2CCC(c3ccccc3)(c3ccccc3)CC2)C1c1ccc([N+](=O)[O-])cc1 (stereo not drawn) | 101 to 104 °C |
| COC(=O)C1=C(C)NC(C)=C(C(=O)OCCCN(C)C)C1c1ccc([N+](=O)[O-])cc1.Cl (stereo not drawn) | 120 to 121 °C |
